assay: Lipophilicity was expressed as Log D
cond: octanol/water
We begin with a simple list: items and their reported logD.
Hey, just send me the number, nothing else.

logD reported for this molecule COC(=O)N1CCN(C(=O)Cc2ccc(Cl)c(Cl)c2)[C@H](CN2CCCC2)C1 : 3.1

So for CC(=O)N1CCN(C(=O)Cc2cc(F)cc(F)c2)C(CN2CC[C@H](O)C2)C1 (stereo not given in full) , the logged logD turned out to be 0.3

Lab book: logD of CN(C(=O)Cc1ccc(Cl)c(Cl)c1)C(CN1CCCC1)c1cccc(OCC(=O)O)c1 (stereo not given) noted as 0.3

Now consider the entry below.
COc1cccc(CC(=O)N2CCN(C(C)=O)CC2CN2CC[C@H](O)C2)c1 (stereo not given in full) has a reported logD of 0

---

assay: Lipophilicity was expressed as Log D
cond: octanol/water
Mark Criterion met only when logD stays strictly below 0. Values equal to the cut-off are Criterion not met.

The following compounds have reported results that may help.
Incoming: Threshold test, logD < 0: CC(=O)N1CCN(C(=O)Cc2ccc(C(F)(F)F)cc2)C(CN2CC[C@H](O)C2)C1 (some centres not stated)
Outgoing: Criterion not met

Incoming: Could you please tell me whether logD recorded for CSc1ccc(CC(=O)N2CCN(C(C)=O)CC2CN2CC[C@H](O)C2)cc1 (some centres not stated) is less than 0?
Outgoing: Criterion not met

Incoming: # TODO verify logD < 0 strictly for this compound: CC(=O)N1CCN(C(=O)Cc2ccc(S(C)(=O)=O)cc2)C(CN2CC[C@H](O)C2)C1 (some centres not stated)
Outgoing: Criterion met

Incoming: Would you kindly verify if logD of CC(=O)N1CCN(C(=O)Cc2ccccc2)C(CN2CC[C@H](O)C2)C1 (some centres not stated) is strictly less than 0?
Outgoing: Criterion met

Incoming: Would you kindly verify if logD of CC(=O)N1CCN(C(=O)Cc2ccc(Cl)c(Cl)c2)C(CN2CC[C@H](O)C2)C1 (some centres not stated) is strictly less than 0?
Outgoing: Criterion not met

Field: next compound
Incoming: For COc1ccc(CC(=O)N2CCN(C(C)=O)CC2CN2CC[C@H](O)C2)cc1 (some centres not stated) , is the recorded logD below the cut-off of 0?
Outgoing: Criterion met

---

Test system: Mus musculus
assay: Tested in vivo for antinociceptive activity using the mouse acetylcholine induced abdominal constriction test by subcutaneous (s.c.) administration
Format: functional
cond: Abdomen, sc
# key: entry, value: ED50
Response body: numeric value in mg/kg, unit text excluded.

Just so you know, measured ED50 for CN(C(=O)Cc1ccc(Cl)c(Cl)c1)C(CN1CCCC1)c1cccc(OCC(=O)O)c1 (centres undefined) [ICI-204448] came out at 4.4

ED50 for CC(=O)N1CCN(C(=O)Cc2ccc(S(C)(=O)=O)cc2)C(CN2CC[C@H](O)C2)C1 (some centres undefined) is 2.21

Next:
Field ED50 (entry CC(=O)N1CCN(C(=O)Cc2ccc(Cl)c(Cl)c2)C(CN2CC[C@H](O)C2)C1 (some centres undefined) ) reads 0.7

The recorded ED50 for entry CC(=O)N1CCN(C(=O)Cc2ccc([N+](=O)[O-])cc2)C(CN2CC[C@H](O)C2)C1 (some centres undefined) equals 4.8

COC(=O)N1CCN(C(=O)Cc2ccc(Cl)c(Cl)c2)[C@H](CN2CCCC2)C1 yielded ED50 of 0.0003

GET /value?item= CC(=O)N1CCN(C(=O)Cc2cc(F)cc(F)c2)C(CN2CC[C@H](O)C2)C1 (some centres undefined) &field=ED50 returns 2.5

According to the records, this compound CSc1ccc(CC(=O)N2CCN(C(C)=O)CC2CN2CC[C@H](O)C2)cc1 (some centres undefined) displays ED50 of 1.52

The compound listed as CC(=O)N1CCN(C(=O)Cc2ccc(C(F)(F)F)cc2)C(CN2CC[C@H](O)C2)C1 (some centres undefined) has a reported ED50 of 0.76

Lab note: measured ED50 of CC(=O)N1CCN(C(=O)Cc2cccc([N+](=O)[O-])c2)C(CN2CC[C@H](O)C2)C1 (some centres undefined) was 0.74
